Recorded reverse-splicing fitness values for a group of variants are listed next.
B1: Azoarcus group I ribozyme (parent)
chain: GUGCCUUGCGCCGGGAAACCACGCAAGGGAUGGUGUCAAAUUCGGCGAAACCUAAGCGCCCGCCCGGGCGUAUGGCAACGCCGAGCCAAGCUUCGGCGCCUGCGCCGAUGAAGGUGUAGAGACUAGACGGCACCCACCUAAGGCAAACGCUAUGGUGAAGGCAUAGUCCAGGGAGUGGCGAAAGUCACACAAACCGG

Variants of: B1
Experiment: reverse-splicing fitness (ratio to wild type); higher = more active; in vitro selection; Mg2+ level not given
Just the number, please, no unit attached.

Below: 3 variants and their reported reverse-splicing fitness.
# input Requested read-out: reverse-splicing fitness. Entry: C82A A111C A120G A145G C150U C169U
# output 0.00986

# input Requested read-out: reverse-splicing fitness. Entry: C82U A111G C150G C169U U176A
# output 0.00707

# input Requested read-out: reverse-splicing fitness. Entry: C82U A111C A120G C150U C169G U176C
# output 0.0161

Kindly review the next variant as well.
# input Requested read-out: reverse-splicing fitness. Entry: C82U A111U A120U A145C C150A C169A U176G
# output 0.00264

Each recorded value in this set is attributed to the RNAGym collection of RNA variant scans (doi:10.1093/molbev/msab373).
